B1: tRNA (parent)
chain: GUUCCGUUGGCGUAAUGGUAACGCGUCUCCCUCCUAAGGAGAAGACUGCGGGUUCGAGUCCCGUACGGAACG

variants of: B1; experiment: yeast fitness relative to wild type (ratio to wild type); higher = fitter; tRNA-Arg(CCU), competitive growth, 37 C, YPD
This sample holds only a part of the variants without activity.
recorded.metric: yeast fitness

INSERT INTO measurements (variant_key, observed_result) VALUES
  ('C4U C34U A40C G41A C62U A65U', '≤ 0.5'),
  ('A14G G17A A57C', '≤ 0.5'),
  ('G17A C55U C62U', '≤ 0.5');

Look up yeast fitness: C4A G10C C29G A65G ≤ 0.5
